- target: Histamine H1 receptor (Cavia porcellus)
- experimental.details: Antagonist activity at histamine H1 receptor in guinea pig terminal ileum
- Assay type: functional, tissue-based
test.readout: pD2
# output: bare number, no unit

The cases that follow already have their pD2 on record.
CN(Cc1ccccc1)Cc1ccc(-c2ccc(CN3CCCCC3)cc2)cc1	4.75
CC(=O)N1CCN(Cc2ccc(-c3ccc(CN4CCCCC4)cc3)cc2)CC1	4.46
CC1CC(C)CN(Cc2ccc(-c3ccc(CN4CC(C)CC(C)C4)cc3)cc2)C1 (stereo unspecified)	5.08
CN(Cc1ccc(-c2ccc(CN(C)C3CCCCC3)cc2)cc1)C1CCCCC1	5.24
CC(=O)N1CCN(Cc2ccc(-c3ccc(CN4CCN(C(C)=O)CC4)cc3)cc2)CC1	4.81

Please examine the following record next.
# pD2 (compound: c1cc(-c2ccc(CN3CCCCC3)cc2)ccc1CN1CCCCC1 ) is 4.84

---

- target: Histamine H3 receptor (Homo sapiens, UniProt Q9Y5N1)
- Sequence (Q9Y5N1 whole entry): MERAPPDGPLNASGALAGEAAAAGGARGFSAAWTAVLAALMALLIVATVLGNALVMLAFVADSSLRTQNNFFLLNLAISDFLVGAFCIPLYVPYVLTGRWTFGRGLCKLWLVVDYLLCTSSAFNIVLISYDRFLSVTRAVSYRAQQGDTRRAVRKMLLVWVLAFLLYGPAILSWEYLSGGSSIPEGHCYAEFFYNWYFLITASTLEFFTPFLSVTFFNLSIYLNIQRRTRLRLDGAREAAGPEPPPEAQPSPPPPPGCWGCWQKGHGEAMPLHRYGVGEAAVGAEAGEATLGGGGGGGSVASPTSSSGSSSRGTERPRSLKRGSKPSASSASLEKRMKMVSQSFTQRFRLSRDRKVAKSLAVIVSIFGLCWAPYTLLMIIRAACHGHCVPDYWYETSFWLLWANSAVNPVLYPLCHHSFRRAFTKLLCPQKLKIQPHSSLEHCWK
- experimental.details: Antagonist activity at human histamine H3 receptor expressed in SK-N-MC cells by CRE-mediated beta-galactosidase reporter gene assay administered 10 mins before (R)-alpha-methylhistamine challenge after 6 hrs
- Format: functional, cell-based
test.readout: pKb
# output: bare number, no unit

c1cc(-c2ccc(CNC3CCCCC3)cc2)ccc1CNC1CCCCC1	6.54

With Histamine H3 receptor (Homo sapiens, UniProt Q9Y5N1) as the test system, CC(=O)N1CCN(Cc2ccc(-c3ccc(CN4CCN(C(C)=O)CC4)cc3)cc2)CC1 showed pKb of 6.7

With Histamine H3 receptor (Homo sapiens, UniProt Q9Y5N1) as the test system, CCCN(CCC)Cc1ccc(-c2ccc(CC(=O)N3CCCCC3)cc2)cc1 showed pKb of 6.96

With Histamine H3 receptor (Homo sapiens, UniProt Q9Y5N1) as the test system, CN(C)CCc1ccc(-c2ccc(CCN(C)C)cc2)cc1 showed pKb of 8.06

With Histamine H3 receptor (Homo sapiens, UniProt Q9Y5N1) as the test system, CCCN(CCC)C(=O)Cc1ccc(-c2ccc(CN3CCCCC3)cc2)cc1 showed pKb of 8.16

With Histamine H3 receptor (Homo sapiens, UniProt Q9Y5N1) as the test system, CN(C)Cc1ccc(-c2ccc(CN3CCCCC3)cc2)cc1 showed pKb of 8.92

With Histamine H3 receptor (Homo sapiens, UniProt Q9Y5N1) as the test system, CN(Cc1ccc(-c2ccc(CN(C)C3CCCCC3)cc2)cc1)C1CCCCC1 showed pKb of 7.27

With Histamine H3 receptor (Homo sapiens, UniProt Q9Y5N1) as the test system, CCN(CC)Cc1ccc(-c2ccc(CN(CC)CC)cc2)cc1 showed pKb of 8.96

---

- target: Acetylcholinesterase (Rattus norvegicus)
- experimental.details: Inhibition of acetylcholinesterase in Wistar rat brain homogenate at upto 1 to 100 uM by Ellman's method
- Type: tissue-based
Recorded inhibition values for a group of compounds are listed next.
Express the result in % but write the number alone.

The cases that follow already have their inhibition on record.
CN(Cc1ccccc1)Cc1ccc(-c2ccc(CN3CCCCC3)cc2)cc1	79
c1cc(-c2ccc(CN3CCCCC3)cc2)ccc1CCN1CCCCC1	91
CC(=O)N1CCN(Cc2ccc(-c3ccc(CN4CCCCC4)cc3)cc2)CC1	79

Please examine the following record next.
# inhibition (compound: CC1CC(C)CN(Cc2ccc(-c3ccc(CN4CCCCC4)cc3)cc2)C1 (centres undefined) ) is 91

Entry source: ChEMBL document CHEMBL1151697
